- System: COLO 205
- run.description: NCI tumour cell line growth inhibition, 48 h
Active and inactive are the calls of the source. No stated cut-off is given here; in the data, active = GI50 up to about 1.1 µM and inactive = higher.
Hi! Could you answer with just one of these? 1 (yes) for active, 0 (no) for inactive

Identify the outcome logged in this assay for the molecule shown: CN(C)CC1CCCCCCCCCCCCC(CN(C)C)C1=O (stereo unspecified) 0 (no)

And for "C=CCn1cc(C(=O)NC(=O)NCCCCCOC(=O)CCCCCCCCCCC(=O)OCCCCCNC(=O)NC(=O)c2cn(CC=C)c(=O)n(C)c2=O)c(=O)n(C)c1=O" ? 0 (no)

// next record O=[N+]([O-])c1ccc2c(c1)C(N1CCN(CCO)CC1)Cc1ccc(F)cc1S2 (stereo unspecified) 0 (no)

And then "CC/C(CC(=O)CCC(=O)Nc1ccc(C)c(C)c1)=N\NC(=O)C(N)=O" , what is it? 0 (no)

Entry to check: "S=P(N1CC1)(N1CC1)N1CC1" 0 (no)

Could you do the same for "ClCc1nc2cc(Cl)ccc2o1" , please? 0 (no)

Record: "c1ccc2sc(C3(N4CCCCCC4)CCCCC3)cc2c1" 0 (no)

Same read-out for "CCc1nc2ccccc2c(=O)n1/N=C(\N=N\c1ccc(Cl)cc1)c1ccccc1" ? 0 (no)

For O=C1CC(=O)NC(NN2C(=O)CSC2c2ccc(Cl)c(Cl)c2)=N1 (stereo unspecified) then? 0 (no)

What would you report for CC1=NN(c2nc(N)nc(C(C)Cl)n2)C(C)(C)C1 (stereo unspecified) ? 0 (no)

Query CC(=O)OC1COC(n2c(=S)n(-c3ccccc3)c(=O)c3ccccc32)C(OC(C)=O)C1OC(C)=O (stereo unspecified) next 0 (no)

Quick one: O=C(O)CSC(CC(=O)c1ccc(Cl)cc1)c1ccc(Cl)cc1 (stereo unspecified) 0 (no)

Then O=S1(=O)C(c2ccccc2)C(N2CCCCC2)C1C1CC2c3ccccc3C1c1ccccc12 (stereo unspecified) ? 0 (no)

Can you check "CC(=O)Nc1ccccc1-c1nc2ccccc2nc1C" next? 0 (no)

Now try COc1ccc(S(=O)(=O)N2C(=O)CCC2C(=O)NC(N)=O)cc1 (stereo unspecified) . 0 (no)

Consider next the molecule "CCOC(=O)c1ccc(NCc2ccc3oc(=O)c(-c4ccccc4)nc3c2)cc1" in the same way. 0 (no)

// same read-out, input: "Cc1cc(C)c(S(=O)(=O)N[C@@H](/C=C(\Br)CO)C(C)C)c(C)c1" 0 (no)

Subsequent entry: CSc1ccc2c(cc1=O)C(NC(=O)c1ccc(C#N)cc1)CCc1cc(O)c(O)c(O)c1-2 (stereo unspecified) 0 (no)

Proceed to "Cn1c(=O)c2nc(/N=N/Nc3nncs3)[nH]c2n(C)c1=O" 0 (no)

Then this molecule: "CCCCCC/C=C\CCCCCCCCCc1cccc(O)c1C(=O)O" 0 (no)

Proceed to "C=CCNC(=O)/C=C\C(=O)O" 0 (no)

What do you get for "CNS(=O)(=O)NNS(=O)(=O)c1ccc2ccccc2c1" ? 0 (no)

Also need "CC1(C)N=C(N)N=C(N)N1CCCCc1ccccc1" , thanks. 1 (yes)

Repeat with O=C(CC1SC(Nc2ccccc2Cl)=NC1=O)Nc1ccc(Cl)cc1Cl (stereo unspecified) 0 (no)

Consider next the molecule Cc1ccc(C2(O)CS/C(=N\C34CC5CC(CC(C5)C3)C4)N2C(P(=O)(O)O)P(=O)(O)O)cc1 (stereo unspecified) in the same way. 0 (no)

// same read-out, input: COC(=O)C(=O)C(C(=O)C(=O)Nc1ccccc1C(N)=O)c1nc2ccc([N+](=O)[O-])cc2nc1O (stereo unspecified) 0 (no)

How about CN1CCc2cc(N)cc3c2C1Cc1ccc2c(c1-3)OCO2 (stereo unspecified) ? 0 (no)

Also "O=C(CSc1nnc(-c2ccc(/N=C\c3ccc(Cl)cc3)cc2)o1)Nc1ccccc1" ? 0 (no)

Please do the same for "COC[C@@H](/N=C/N1CCc2cc(OC)c(OC)cc2C1)C(C)(C)C" as well. 0 (no)

Now the same for OCC1OC(OCC(O)C(O)C(O)C(/C=N/Nc2ccccc2)=N/Nc2ccccc2)C(O)C(O)C1O (stereo unspecified) 0 (no)

# repeat for "COc1ccc(-c2cc(=O)c3c(O)c(OC)c(O)c(OC)c3o2)cc1OC" 0 (no)

Entry to check: "CCN(CC)CCNc1ccc([N+](=O)[O-])c2nc3ccc(OC)cc3c(N)c12" 1 (yes)

Then this molecule: COC(=O)C1SC(SC)=NC12c1ccccc1Nc1ccccc12 (stereo unspecified) 0 (no)

Also CC(=O)OCC(Br)C1(C)CCC(C(C)(C)Br)O1 (stereo unspecified) ? 0 (no)

# repeat for OC1OC(c2ccc[nH]2)C(F)(F)C(F)(F)C1(F)F (stereo unspecified) 0 (no)

// repeat for "CSc1nnc(SCc2nn3c(=O)cc(C)nc3s2)s1" and report 0 (no)
